Recorded measurements of pEC50, one per entry
target: RARβ (Homo sapiens, UniProt P10826); assay: Retinoid activation assay, RARβ (COS-1 cells, SeAP reporter); settings: read-out: Activation EC50 RAR β
Sequence (P10826 183-417 limits assumed): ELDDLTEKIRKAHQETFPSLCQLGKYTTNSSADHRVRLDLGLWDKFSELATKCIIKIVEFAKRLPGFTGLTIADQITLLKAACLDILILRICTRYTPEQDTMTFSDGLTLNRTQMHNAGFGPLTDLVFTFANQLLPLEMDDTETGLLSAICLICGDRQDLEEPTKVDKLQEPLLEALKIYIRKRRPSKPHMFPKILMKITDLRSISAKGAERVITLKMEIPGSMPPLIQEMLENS
pEC50: −log10 of the molar value.
ASSAY_ENDPOINT: pEC50

COMPOUND: CC(/C=C/C1=C(c2ccc3c(c2)C(C)(C)CCC3(C)C)CCC1)=C\C(=O)O
SUBJECT_OF_TEST: RARβ (Homo sapiens, UniProt P10826)
ASSAY_ENDPOINT: pEC50
VALUE_OBSERVED: 7.08
--
COMPOUND: CC1=C(/C=C/C2=C(/C=C/C(C)=C/C(=O)O)CCC2)C(C)(C)CCC1
SUBJECT_OF_TEST: RARβ (Homo sapiens, UniProt P10826)
ASSAY_ENDPOINT: pEC50
VALUE_OBSERVED: 7.05
--
COMPOUND: CC(/C=C/[C@@H]1C[C@@H]1c1ccc2c(c1)C(C)(C)CCC2(C)C)=C\C(=O)O (racemic)
SUBJECT_OF_TEST: RARβ (Homo sapiens, UniProt P10826)
ASSAY_ENDPOINT: pEC50
VALUE_OBSERVED: 5.92
--
COMPOUND: CC(/C=C/c1sccc1-c1ccc2c(c1)C(C)(C)CCC2(C)C)=C\C(=O)O
SUBJECT_OF_TEST: RARβ (Homo sapiens, UniProt P10826)
ASSAY_ENDPOINT: pEC50
VALUE_OBSERVED: 6.44
--
COMPOUND: CCC1(CC)CCC(C)(C)c2cc(\C(C)=C/C=C/C(C)=C/C(=O)O)ccc21
SUBJECT_OF_TEST: RARβ (Homo sapiens, UniProt P10826)
ASSAY_ENDPOINT: pEC50
VALUE_OBSERVED: 8.00
--
COMPOUND: CC1=C(/C=C/c2sccc2/C=C/C(C)=C/C(=O)O)C(C)(C)CCC1
SUBJECT_OF_TEST: RARβ (Homo sapiens, UniProt P10826)
ASSAY_ENDPOINT: pEC50
VALUE_OBSERVED: 7.07
